# Tested on: LOX IMVI
# ASSAY_NAME: NCI tumour cell line growth inhibition, 48 h
Activity calls are given as the source filed them. Cut-off read from the data, not from the text of the source: active = GI50 up to about 1.1 µM and inactive = higher.
Output constraint: value belongs to 1 = active, 0 = inactive

A selection of reference data follows.
Query string: Record request — test call for Cn1c(-c2cccs2)cc(-c2ccccc2)c1-c1cccs1
Result string: 0

Query string: Record request — test call for COP(=O)(/C=C/C(NC(=O)C(Cl)(Cl)Cl)c1ccccc1)OC (stereo unspecified)
Result string: 0

Query string: Record request — test call for O=C1C=CC(=O)C12CCc1ccccc12
Result string: 0

Continuing:
Query string: Record request — test call for CO[P@@]1(=O)O[C@@H](c2ccccc2)[C@H](O)[C@@]1(O)c1ccccc1
Result string: 0

Query string: Record request — test call for Cc1cccc(NC(=O)CSc2nnc(-c3ccc(/N=C\c4ccc(Cl)cc4)cc3)o2)c1
Result string: 0

Query string: Record request — test call for COC(=O)c1cc2c(n1S(=O)(=O)c1ccc(C)cc1)C(=O)C(=O)c1[nH]cc(C(=O)OCc3ccccc3)c1-2
Result string: 1
